B1: Hairpin Ribozyme (parent)
chain: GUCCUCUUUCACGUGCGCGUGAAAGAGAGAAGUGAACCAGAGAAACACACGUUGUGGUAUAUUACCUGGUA

variants of: B1; assay: self-cleavage, relative activity (ratio to wild type); higher = more cleavage; co-transcriptional
Measured self-cleavage, listed per entry.
Enter the number alone.

>  <Mutation descriptor>
C4U C66A

>  <self-cleavage>
0.182

$$$$
>  <Mutation descriptor>
G15U A24G

>  <self-cleavage>
1.12

$$$$
>  <Mutation descriptor>
A24U G29C

>  <self-cleavage>
0.115

$$$$

Consider the record given below.
Q. What does the data say about its self-cleavage? Entry: G17U C48A
A. 0.106
